Recorded values, source patent US20180099931A1.

# test system: F508delCFTR (Homo sapiens, UniProt P13569, DEL508-508)
# Construct: expressed in transfected cells; host or cells: CFBE41o- human lung-derived epithelial cells (CFBE4lo-F508delCFTR-HRP), doxycycline-inducible
# Sequence (P13569 with tags, fused parts or gaps DEL508-508): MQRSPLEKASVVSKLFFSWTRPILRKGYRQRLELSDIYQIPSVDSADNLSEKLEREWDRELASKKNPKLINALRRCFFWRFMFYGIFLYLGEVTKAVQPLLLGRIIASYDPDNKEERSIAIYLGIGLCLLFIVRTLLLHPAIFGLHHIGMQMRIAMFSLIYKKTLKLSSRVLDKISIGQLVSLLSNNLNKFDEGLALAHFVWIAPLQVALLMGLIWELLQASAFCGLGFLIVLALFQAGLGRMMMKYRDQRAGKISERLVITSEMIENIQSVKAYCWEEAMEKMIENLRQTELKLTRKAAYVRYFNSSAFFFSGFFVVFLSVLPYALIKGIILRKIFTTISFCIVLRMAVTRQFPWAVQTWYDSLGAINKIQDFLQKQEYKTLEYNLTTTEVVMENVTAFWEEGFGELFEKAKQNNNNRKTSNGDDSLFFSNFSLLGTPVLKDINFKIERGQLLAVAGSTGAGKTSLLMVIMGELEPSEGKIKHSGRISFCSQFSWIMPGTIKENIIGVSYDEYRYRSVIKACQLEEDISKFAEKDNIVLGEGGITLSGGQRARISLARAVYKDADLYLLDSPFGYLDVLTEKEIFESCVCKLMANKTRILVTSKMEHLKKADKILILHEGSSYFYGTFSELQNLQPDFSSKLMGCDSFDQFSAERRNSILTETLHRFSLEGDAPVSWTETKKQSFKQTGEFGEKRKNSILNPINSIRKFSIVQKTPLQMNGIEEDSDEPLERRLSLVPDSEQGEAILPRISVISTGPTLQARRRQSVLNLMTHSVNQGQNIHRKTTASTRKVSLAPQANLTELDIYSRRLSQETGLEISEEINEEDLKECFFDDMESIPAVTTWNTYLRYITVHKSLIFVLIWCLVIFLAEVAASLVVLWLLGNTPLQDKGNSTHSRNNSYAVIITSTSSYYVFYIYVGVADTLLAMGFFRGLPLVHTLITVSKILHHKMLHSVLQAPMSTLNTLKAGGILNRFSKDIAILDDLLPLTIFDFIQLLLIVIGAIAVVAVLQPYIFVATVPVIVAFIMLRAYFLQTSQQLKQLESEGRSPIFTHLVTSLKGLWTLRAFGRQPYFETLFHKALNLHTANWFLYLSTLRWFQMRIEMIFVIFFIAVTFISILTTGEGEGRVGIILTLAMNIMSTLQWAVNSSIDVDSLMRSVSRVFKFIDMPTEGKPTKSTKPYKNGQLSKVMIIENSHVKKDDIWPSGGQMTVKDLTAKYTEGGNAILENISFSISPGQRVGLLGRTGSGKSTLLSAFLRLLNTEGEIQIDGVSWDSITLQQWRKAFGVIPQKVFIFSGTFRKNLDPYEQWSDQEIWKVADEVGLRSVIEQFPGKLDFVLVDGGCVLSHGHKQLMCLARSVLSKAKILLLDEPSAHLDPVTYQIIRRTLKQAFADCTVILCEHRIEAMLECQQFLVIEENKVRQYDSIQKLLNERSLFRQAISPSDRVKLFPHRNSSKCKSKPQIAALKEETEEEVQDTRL
# experimental details: Cell Surface Expression-Horse Radish Peroxidase (CSE-HRP) Assay
# Format: cell-based
# measurement setup: with co-corrector (2 μM of 3-[(2R,4R)-4-({[1-(2,2-difluoro-1,3-benzodioxol-5-yl)cyclopropyl]carbonyl}amino)-7-methoxy-3,4-dihydro-2H-chromen-2-yl]benzoic acid); read-out: EC50 (with co-corrector)
readout label: EC50

{"columns": ["compound", "EC50"],
 "data": [
  ["COc1ccc(C(C)(C)C)cc1CN[C@H]1[C@H](C(C)(C)C)[C@@H](C(=O)O)N(C(=O)C2CCCCO2)[C@H]1c1ccccc1 (relative stereo) [Example I-193]", "1000 to 10000 nM"],
  ["COc1ccc(C(F)(F)F)cc1CN[C@H]1[C@H](C(C)(C)OC)[C@@H](C(=O)O)N(C(=O)C2CCCCC2)[C@H]1c1ccccc1", "< 1000 nM"],
  ["COc1ccc(CC2CCCCC2)cc1CN[C@H]1[C@H](C(C)(C)C)[C@@H](C(=O)O)N(C(=O)C2CCCCC2)[C@H]1c1ccccc1", "< 1000 nM"],
  ["COc1ncc(C(F)(F)F)cc1CN[C@H]1[C@H](C(C)(C)C)[C@@H](C(=O)O)N(C(=O)C2CCCC(F)(F)C2)[C@H]1c1ccccc1 (stereo partly drawn)", "< 1000 nM"],
  ["COc1ccc(C(C)(C)C)cc1CN[C@H]1[C@H](C(C)(C)C)[C@@H](C(=O)O)N(C(=O)[C@@H]2C[C@H]2c2ccccc2)[C@H]1c1ccccc1 (relative stereo)", "< 1000 nM"],
  ["COc1ccc(C(C)(C)C)cc1CN[C@H]1[C@H](C(C)(C)C)[C@@H](C(=O)O)N(C(=O)Cc2ccsc2)[C@H]1c1ccccc1", "1000 to 10000 nM"]
]}

In: Fill in EC50 for record COc1nc(C2CCC2)ccc1CN[C@H]1[C@H](C(C)(C)C)[C@@H](C(=O)O)N(C(=O)C2CCCCC2)[C@H]1c1ccccc1
Out: 1000 to 10000 nM

In: Indicate its recorded EC50; the compound in question is COc1ccc(C(F)(F)F)cc1CN[C@H]1[C@H](C(C)(C)C)[C@@H](C(=O)O)N(C(=O)C2CCCCC2)[C@H]1c1cccnc1N(C)C
Out: 1000 to 10000 nM

In: Give EC50 for the following compound: COc1ccccc1CN[C@@H]1[C@@H](C(C)(C)C)[C@H](C(=O)O)N(C(=O)C2CCCCC2)[C@@H]1c1ccccc1 (racemic)
Out: 1000 to 10000 nM

In: Identify EC50 associated with the compound CC#CCOC(=O)N1[C@H](C(=O)O)[C@@H](C(C)(C)C)[C@H](NCc2cc(C(C)(C)C)ccc2OC)[C@@H]1c1ccccc1
Out: 1000 to 10000 nM

In: Respond only with EC50 recorded for COc1ncc(C(F)(F)F)cc1N[C@H]1[C@H](C(C)(C)C)[C@@H](C(=O)O)N(C(=O)C2CCCCC2)[C@H]1c1ccccc1
Out: < 1000 nM

In: Respond only with EC50 recorded for COc1ccc(C(C)(C)C)cc1CN[C@H]1[C@H](C(C)(C)C)[C@@H](C(=O)O)N(C(=O)[C@]2(C)CCc3c(OC)cccc32)[C@H]1c1ccccc1
Out: 1000 to 10000 nM
